System: rosacea
Experiment: topical treatment of rosacea (related materials tested)
Assay type: in vivo, humans
Conditions: topical application
Reported Endpoint: usefulness in the present invention (treatment of rosacea)

Take a look at these entries with their results.
CC(=O)OC1CCCCC1 [cyclohexyl acetate]; not to be useful
CC1CCC(C(C)C)C(O)C1 (centres unmarked) [menthol]; not to be useful
OCCCCC1CCCCC1 [4-cyclohexyl-1-butanol]; not to be useful
CC1(O)CCCCC1 [1-methylcyclohexanol]; not to be useful
ClC1CCCCC1 [cyclohexyl chloride]; not to be useful

Field: usefulness in the present invention (treatment of rosacea). Fill in for each record below.
1. C1CCCCC1 [cyclohexane]
2. CC1(C)[C@H]2C[C@H]1[C@@](C)(O)[C@@H](O)C2 [(1R,2R,3S,5S-(−))-pinanediol]
3. OC1CCCC1O (centres unmarked) [1,2-cyclopentanediol]
4. C1=CCCCC1 [cyclohexene]
5. OCC1(CO)CC2C=CC1C2 (centres unmarked) [5-norborene-2,2-dimethanol]
6. O=C(O)C1CCCCC1 [cyclohexyl carboxylic acid]

*A*
1: not to be useful; 2: do not work; 3: do not work; 4: not to be useful; 5: do not work; 6: not to be useful
